Tested on: BT-549 breast
TEST PROTOCOL: NCI tumour cell line growth inhibition, 48 h
Measured TGI values are reported for all entries that follow.
ATTRIBUTE MEASURED: TGI (µM)

- Cc1cc2c3c([n+](C)c4ccc(F)cc4c3c1)-c1cc(F)ccc1N2C: 33.9
- Nc1ccc(Cn2ccc3c4c(N)nc(N)nc4ccc32)cc1: 16.4
- Cc1ccc(-c2c3c(nn2-c2ccc(S(=O)(=O)NC(=O)NC4CCCCC4)cc2)-c2ccccc2C3)cc1: 26.5

----------
System: SF-295 CNS
TEST PROTOCOL: NCI tumour cell line growth inhibition, 48 h
ATTRIBUTE MEASURED: TGI (µM)

• O=C1C=C(NCC(c2ccccc2)c2ccccc2)C(=O)c2ncccc21 = 3.51
• CC(=O)OC1CC(OC2C(O)CC(OC3C(O)CC(OC4CCC5(C)C(CCC6C5CCC5(C)C(C7=CC(=O)OC7)CCC65O)C4)OC3C)OC2C)OC(C)C1OC1OC(CO)C(O)C(O)C1O (configuration not stated) = 0.142
• COC(=O)c1c2c(c(C)[n+]([O-])c1C)C(=O)C(NCc1ccc(F)cc1)=CC2=O = 3

----------
Tested on: NCI/ADR-RES ovarian
TEST PROTOCOL: NCI tumour cell line growth inhibition, 48 h; in the data active means GI50 below about 0.43 µM; inactive means the rest
Labels: class 1 = active, class 0 = inactive

* Cc1cc(Cl)nc(N(CCCNc2ccnc3cc(Cl)ccc23)Cc2cccs2)n1 | class 0
* CCCCSc1nc(N)c2cn[nH]c2n1 | class 0
* CCn1cc(C(=O)N/N=C/c2cccs2)c(=O)c2cc(F)c(N3CCNC(C)C3)c(F)c21 (centres undefined) | class 0
* CCC[n+]1cc2cc3c(cc2c2c1-c1cc4c(cc1C2)OCO4)OCO3 (tested in a mixture with another compound) | class 0
* O=C(NCc1ccco1)C1CCN(S(=O)(=O)c2ccc(Cl)cc2)CC1 | class 0
* COc1cc2c3c(n([C@@H]4CCOC4)c(=O)c2cc1OC)-c1cc2c(cc1C3=O)OCO2 | class 1
* COc1c(B(O)O)cccc1-c1nc2ccc3[nH]ncc3c2c2c1CCCC2 | class 0
* COC(=O)c1c2c(c(C)[n+]([O-])c1C)C(=O)C(NCc1ccc(F)cc1)=CC2=O | class 0
* CC(C)(O)CCc1cccc(C(=O)c2cnn(-c3ccc(F)cc3)c2N)c1 | class 0

----------
System: OVCAR-3 ovarian
TEST PROTOCOL: NCI tumour cell line growth inhibition, 48 h
ATTRIBUTE MEASURED: TGI (µM)

- O=C1C(Cl)=C(Nc2cc(Cl)ccc2O)C(=O)N1Cc1ccccc1: 35.8
- CC(=O)c1c2c(cc3c1CC1(Cc4cc5c(cc4C1)C(=O)CCC5)C3)CCCC2 (stereo not given): 54.3
- C[C@@H](CS[As](C)C)C(=O)N1CCC[C@H]1C(=O)O: 0.223
- CC(=O)c1ccc2c3c1[C@H]1O[C@H]1c1cccc(c1-3)[C@@H]1O[C@H]21: 12.1

----------
Tested on: CCRF-CEM leukemia
TEST PROTOCOL: NCI tumour cell line growth inhibition, 48 h; in the data active = GI50 below about 0.43 µM; inactive = the rest
Labels: active, inactive

* CC(=O)CCc1ccc(Oc2c3c(nc4ccccc24)OCC3)cc1 | inactive
* Cc1nc2sc(C(=O)Nc3ccccc3)c(N)c2cc1C(O)c1ccccc1 (centres undefined) | active
* Cc1nn(Cc2ccccc2)cc1C(=O)Nc1sc2c(c1C(N)=O)CCC(=O)C2 | inactive
* CCN(CC)S(=O)(=O)c1cccc(-c2ccc3c(NC(=O)C4CC4)n[nH]c3c2)c1 | inactive
* C=C1C(=O)O[C@H]2[C@H]1CC/C(COC(=O)CCCCCCCC(=O)OC/C1=C/CC[C@@]3(C)O[C@H]3[C@H]3OC(=O)C(=C)[C@@H]3CC1)=C\CC[C@@]1(C)O[C@@H]21 | inactive
* COc1ccc(/C=C2\COc3ccc(O)c(O)c3C2=O)cc1OC | active
* COc1c(B(O)O)cccc1-c1nc2ccc3[nH]ncc3c2c2c1CCCC2 | inactive
* Cc1cc(Cl)nc(N(CCCNc2ccnc3cc(Cl)ccc23)Cc2cccs2)n1 | inactive
* CSc1nnc(-c2cc3c([nH]c4ccccc43)c(-c3cccc(O)c3)n2)n1-c1ccc(C)cc1 | inactive
